What self-cleavage was measured for each of the following?
B1: Osa-1-4 twister ribozyme (parent)
chain: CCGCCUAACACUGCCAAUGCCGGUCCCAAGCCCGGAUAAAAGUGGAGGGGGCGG

- Variants of: B1
- run-description: self-cleavage, relative activity (ratio to wild type); higher = more cleavage; co-transcriptional
Give bare numbers.

variant-annotation	self-cleavage
G51C G53U	0.06

Lab note: each variant below needs its self-cleavage filled in.
1. A46C C26U
2. A46G A7G
3. A38C A41G
4. A41U G19A
5. A7G G54A
6. C9A G42A

Solution:
1. 0.05
2. 0.05
3. 0.69
4. 0.94
5. 0.19
6. 0.09

Lab note: each variant below needs its self-cleavage filled in.
1. C26U G51A
2. G50C G51U
3. C52U G23A
4. A38U G22U

Solution:
1. 0.45
2. 0.32
3. 0.68
4. 0.89
